# Experiment: Permeability of compound by PAMPA assay
# Format: ADME
# Set-up: reference not given here
Please provide measured permeability for the entries that follow.
# output: numeric value plus its unit

The compound listed as CN(C)Cc1ccc(-c2cnc(N)c(C(=O)NC3CCCCC3)n2)cc1 has a reported permeability of 100%

The compound listed as CCNC(=O)c1nc(-c2ccc(CN(C)C)cc2)cnc1N has a reported permeability of 99%

The compound listed as CCN(CC)Cc1ccc(-c2cnc(N)c(C(=O)NC[C@@](C)(O)C(F)(F)F)n2)cc1 has a reported permeability of 99%

---

# Experiment: Aqueous solubility of compound at pH 6.8
# Type: physicochemical
Parameter: solubility (µM)
Answer in µM, number only, no unit symbol.

The molecule listed as CN(C)Cc1ccc(-c2cnc(N)c(C(=O)NC3CCCCC3)n2)cc1 has a reported solubility of 190

The molecule listed as Nc1ncc(-c2ccc(CN3CCC(N4CCOCC4)CC3)cc2Cl)nc1C(=O)NC12CCC(O)(CC1)CC2 has a reported solubility of 420

The molecule listed as C[C@@](O)(CNC(=O)c1nc(-c2ccc(CN3CCS(=O)(=O)CC3)cc2)cnc1N)C(F)(F)F has a reported solubility of 4

The molecule listed as CC(C)N1CCN(Cc2ccc(-c3cnc(N)c(C(=O)N[C@H]4CC[C@H](O)CC4)n3)cc2)CC1 has a reported solubility of 830

---

# System Under Test: Activin receptor type-1 (Homo sapiens, UniProt Q04771, R206H)
# Sequence (Q04771 21-509 R206H limits assumed): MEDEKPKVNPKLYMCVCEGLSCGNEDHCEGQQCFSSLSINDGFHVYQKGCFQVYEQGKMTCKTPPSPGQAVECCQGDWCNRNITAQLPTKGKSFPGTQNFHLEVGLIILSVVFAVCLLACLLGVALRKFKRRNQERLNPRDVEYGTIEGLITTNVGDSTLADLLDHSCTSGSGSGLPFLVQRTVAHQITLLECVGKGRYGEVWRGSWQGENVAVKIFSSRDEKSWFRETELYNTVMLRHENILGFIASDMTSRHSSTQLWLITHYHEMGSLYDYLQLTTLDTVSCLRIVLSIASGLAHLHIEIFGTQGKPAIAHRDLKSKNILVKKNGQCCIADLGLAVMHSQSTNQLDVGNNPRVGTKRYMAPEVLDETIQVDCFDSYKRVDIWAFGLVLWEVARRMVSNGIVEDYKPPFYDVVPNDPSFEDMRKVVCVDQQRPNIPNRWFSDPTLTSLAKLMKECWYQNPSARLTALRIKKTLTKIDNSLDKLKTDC
# Experiment: Inhibition of ALK2 R206H mutant (unknown origin) assessed as enzymatic activity by microfluidic mobility shift assay
Parameter: pIC50
Would you please state pIC50, meaning minus log10 of the concentration in mol/L, as a bare number?

The molecule listed as Nc1ncc(-c2ccc(CN3CCC(N4CCOCC4)CC3)cc2Cl)nc1C(=O)NC12CCC(O)(CC1)CC2 has a reported pIC50 of 8.10

---

# Experiment: Aqueous solubility of compound at pH 6.8
# Type: physicochemical
Parameter: solubility

The molecule listed as C[C@@](O)(CNC(=O)c1nc(-c2ccc(CN3CCOCC3)cc2)cnc1N)C(F)(F)F has a reported solubility of 190 µM

The molecule listed as CCNC(=O)c1nc(-c2ccc(CN(C)C)cc2)cnc1N has a reported solubility of > 1000 µM

The molecule listed as CC(C)NC(=O)c1nc(-c2ccc(CN(C)C)cc2)cnc1N has a reported solubility of > 1000 µM

The molecule listed as CN(C)Cc1ccc(-c2cnc(N)c(C(=O)NC3CCC(O)CC3)n2)cc1 (stereo not given) has a reported solubility of 850 µM

The molecule listed as Nc1ncc(-c2ccc(CN3CCC(N4CCCC4)CC3)cc2)nc1C(=O)N[C@H]1CC[C@H](O)CC1 (stereo in doubt; 18) has a reported solubility of > 1000 µM

---

# Experiment: Permeability of compound by PAMPA assay
# Type: ADME
# Parameters: reference not given here
Would you please tag the item yes (1) when its permeability is 90% or above, and no (0) when it is below?

Query block: Tell me whether permeability is at least 90% here: C[C@@](O)(CNC(=O)c1nc(-c2ccc(CN3CCOCC3)cc2)cnc1N)C(F)(F)F
Result block: yes (1)

Query block: Tell me whether permeability is at least 90% here: Nc1ncc(-c2ccc(CN3CCC(N4CCCC4)CC3)cc2)nc1C(=O)N[C@H]1CC[C@H](O)CC1 (stereo in doubt; 19)
Result block: no (0)

Query block: Tell me whether permeability is at least 90% here: CC(C)NC(=O)c1nc(-c2ccc(CN(C)C)cc2)cnc1N
Result block: yes (1)

Query block: Tell me whether permeability is at least 90% here: CN(C)Cc1ccc(-c2cnc(N)c(C(=O)NC3CCC(O)CC3)n2)cc1 (stereo not drawn)
Result block: yes (1)

Query block: Tell me whether permeability is at least 90% here: C[C@@](O)(CNC(=O)c1nc(-c2ccc(CN3CCNCC3)cc2)cnc1N)C(F)(F)F
Result block: no (0)

Query block: Tell me whether permeability is at least 90% here: C[C@@](O)(CNC(=O)c1nc(-c2ccc(CN3CCCC3)cc2)cnc1N)C(F)(F)F
Result block: yes (1)

Query block: Tell me whether permeability is at least 90% here: CC(C)N1CCN(Cc2ccc(-c3cnc(N)c(C(=O)NC[C@@](C)(O)C(F)(F)F)n3)cc2)CC1
Result block: yes (1)

Query block: Tell me whether permeability is at least 90% here: Nc1ncc(-c2ccc(CN3CCC(N4CCCC4)CC3)cc2)nc1C(=O)N[C@H]1CC[C@H](O)CC1 (stereo in doubt; 18)
Result block: no (0)

Query block: Tell me whether permeability is at least 90% here: C[C@@](O)(CNC(=O)c1nc(-c2ccc(CN3CCS(=O)(=O)CC3)cc2)cnc1N)C(F)(F)F
Result block: no (0)

Query block: Tell me whether permeability is at least 90% here: Nc1ncc(-c2ccc(CN3CCC(N4CCOCC4)CC3)cc2Cl)nc1C(=O)N[C@H]1CC[C@H](O)CC1
Result block: yes (1)

Query block: Tell me whether permeability is at least 90% here: CCN(CC)C1CCN(Cc2ccc(-c3cnc(N)c(C(=O)N[C@H]4CC[C@H](O)CC4)n3)cc2)CC1
Result block: no (0)

Query block: Tell me whether permeability is at least 90% here: CN(C)Cc1ccc(-c2cnc(N)c(C(=O)NCC(O)C(F)(F)F)n2)cc1 (stereo not drawn)
Result block: yes (1)

Query block: Tell me whether permeability is at least 90% here: CN(C)Cc1ccc(-c2cnc(N)c(C(=O)NC[C@@](C)(O)C(F)(F)F)n2)cc1
Result block: yes (1)

Query block: Tell me whether permeability is at least 90% here: CN(C)Cc1ccc(-c2cnc(N)c(C(=O)NC3CCCC3O)n2)cc1 (stereo not drawn)
Result block: yes (1)

Query block: Tell me whether permeability is at least 90% here: CC(O)CNC(=O)c1nc(-c2ccc(CN(C)C)cc2)cnc1N (racemic)
Result block: no (0)

Query block: Tell me whether permeability is at least 90% here: Nc1ncc(-c2ccc(CN3CCC(N4CCOCC4)CC3)cc2)nc1C(=O)N[C@H]1CC[C@H](O)CC1
Result block: no (0)

Query block: Tell me whether permeability is at least 90% here: Nc1ncc(-c2ccc(CN3CCC(N4CCOCC4)CC3)cc2Cl)nc1C(=O)NC12CCC(O)(CC1)CC2
Result block: yes (1)

Query block: Tell me whether permeability is at least 90% here: CC(C)N1CCN(Cc2ccc(-c3cnc(N)c(C(=O)N[C@H]4CC[C@H](O)CC4)n3)cc2)CC1
Result block: no (0)

---

# Experiment: Aqueous solubility of compound at pH 6.8
# Format: physicochemical
Please provide measured solubility for the entries that follow.

The compound listed as CC(O)CNC(=O)c1nc(-c2ccc(CN(C)C)cc2)cnc1N (racemic) has a reported solubility of > 1000 µM

The compound listed as Nc1ncc(-c2ccc(CN3CCC(N4CCOCC4)CC3)cc2)nc1C(=O)N[C@H]1CC[C@H](O)CC1 has a reported solubility of > 1000 µM

The compound listed as CCN(CC)Cc1ccc(-c2cnc(N)c(C(=O)NC[C@@](C)(O)C(F)(F)F)n2)cc1 has a reported solubility of > 1000 µM

The compound listed as C[C@@](O)(CNC(=O)c1nc(-c2ccc(CN3CCNCC3)cc2)cnc1N)C(F)(F)F has a reported solubility of > 1000 µM

The compound listed as CN(C)Cc1ccc(-c2cnc(N)c(C(=O)NC[C@@](C)(O)C(F)(F)F)n2)cc1 has a reported solubility of 510 µM

The compound listed as CC(C)N1CCN(Cc2ccc(-c3cnc(N)c(C(=O)NC[C@@](C)(O)C(F)(F)F)n3)cc2)CC1 has a reported solubility of > 1000 µM

The compound listed as CN(C)Cc1ccc(-c2cnc(N)c(C(=O)NCC(O)C(F)(F)F)n2)cc1 (centres undefined) has a reported solubility of 880 µM

The compound listed as CN(C)Cc1ccc(-c2cnc(N)c(C(=O)NC3CCCC3O)n2)cc1 (centres undefined) has a reported solubility of 940 µM

The compound listed as Nc1ncc(-c2ccc(CN3CCC(N4CCOCC4)CC3)cc2Cl)nc1C(=O)N[C@H]1CC[C@H](O)CC1 has a reported solubility of > 1000 µM

---

# Experiment: Microsomal stability in mouse liver microsomes assessed as clearance
# Type: ADME, Microsome
Parameter: CLH (µL/min/mg)
Answer in µL/min/mg, number only, no unit symbol.

The compound listed as C[C@]1(O)CC[C@H](NC(=O)c2nc(-c3ccc(CN4CCC(N5CCOCC5)CC4)cc3Cl)cnc2N)CC1 has a reported CLH of 197

The compound listed as C[C@@](O)(CNC(=O)c1nc(-c2ccc(CN3CCS(=O)(=O)CC3)cc2)cnc1N)C(F)(F)F has a reported CLH of 20

The compound listed as CCNC(=O)c1nc(-c2ccc(CN(C)C)cc2)cnc1N has a reported CLH of 373

The compound listed as CCN(CC)Cc1ccc(-c2cnc(N)c(C(=O)NC[C@@](C)(O)C(F)(F)F)n2)cc1 has a reported CLH of 58

The compound listed as Nc1ncc(-c2ccc(CN3CCC(N4CCOCC4)CC3)cc2Cl)nc1C(=O)N[C@H]1CC[C@H](O)CC1 has a reported CLH of 74

The compound listed as CC(C)NC(=O)c1nc(-c2ccc(CN(C)C)cc2)cnc1N has a reported CLH of 634

The compound listed as CN(C)Cc1ccc(-c2cnc(N)c(C(=O)NC3CCCCC3)n2)cc1 has a reported CLH of 839

The compound listed as CC(C)N1CCN(Cc2ccc(-c3cnc(N)c(C(=O)NC[C@@](C)(O)C(F)(F)F)n3)cc2)CC1 has a reported CLH of 28

The compound listed as Nc1ncc(-c2ccc(CN3CCC(N4CCCC4)CC3)cc2)nc1C(=O)N[C@H]1CC[C@H](O)CC1 (stereo in doubt; 19) has a reported CLH of 23

The compound listed as CN(C)Cc1ccc(-c2cnc(N)c(C(=O)NCC(O)C(F)(F)F)n2)cc1 (configuration not stated) has a reported CLH of 159

The compound listed as CN(C)Cc1ccc(-c2cnc(N)c(C(=O)NC[C@@](C)(O)C(F)(F)F)n2)cc1 has a reported CLH of 126

The compound listed as CC(C)N1CCN(Cc2ccc(-c3cnc(N)c(C(=O)N[C@H]4CC[C@H](O)CC4)n3)cc2)CC1 has a reported CLH of 12

The compound listed as C[C@@](O)(CNC(=O)c1nc(-c2ccc(CN3CCOCC3)cc2)cnc1N)C(F)(F)F has a reported CLH of 86

The compound listed as C[C@@](O)(CNC(=O)c1nc(-c2ccc(CN3CCCC3)cc2)cnc1N)C(F)(F)F has a reported CLH of 41

The compound listed as CN(C)Cc1ccc(-c2cnc(N)c(C(=O)NC3CCCC3O)n2)cc1 (configuration not stated) has a reported CLH of 179

The compound listed as CC(O)CNC(=O)c1nc(-c2ccc(CN(C)C)cc2)cnc1N (racemic) has a reported CLH of 103

The compound listed as CN(C)Cc1ccc(-c2cnc(N)c(C(=O)NC3CCC(O)CC3)n2)cc1 (configuration not stated) has a reported CLH of 64

The compound listed as Nc1ncc(-c2ccc(CN3CCC(N4CCOCC4)CC3)cc2Cl)nc1C(=O)NC12CCC(O)(CC1)CC2 has a reported CLH of 55

The compound listed as Nc1ncc(-c2ccc(CN3CCC(N4CCOCC4)CC3)cc2)nc1C(=O)N[C@H]1CC[C@H](O)CC1 has a reported CLH of 19
